measurement_protocol: Therapeutic index, ratio of CC50 for human U373 cells expressing CD4-CCR5 to IC50 for HIV1 pNL4.3deltaenvLuc-ADA 8 pseudotyped virus infected in human U373-CD4-CCR5 cells
Format: toxicity, cell-based
test_settings: read-out: Ratio CC50/IC50
observation_type: selectivity ratio
Answer with a number only.

Request: What value of selectivity ratio has been recorded for this entry: CCc1c(CN)c(CC)c2c(CC)c1CNCc1ccc([nH]1)CNCc1c(CC)c(CNCc3ccc[nH]3)c(CC)c(c1CC)CNCc1ccc([nH]1)CNC2
Response: 8

----------
measurement_protocol: Cytotoxicity against human MT4 cells assessed as reduction in cell viability incubated for 5 days by MTT assay
Format: cell-based
observation_type: CC50 at 120 h
Answer format reminder: number followed by unit.

Request: What value of CC50 at 120 h has been recorded for this entry: CCc1c(CN)c(CC)c2c(CC)c1CNCc1ccc([nH]1)CNCc1c(CC)c(CNCc3ccc[nH]3)c(CC)c(c1CC)CNCc1ccc([nH]1)CNC2
Response: 24 µM

----------
target_of_assay: cTAR DNA
measurement_protocol: Binding affinity to HIV1 fluorescein-labeled-5'-cTAR DNA at cTAR to compound complex stoichiometry ratio of 1:3 using 30 mM NaCl by fluorescence anisotropy assay
Assay type: nucleic-acid assay, Human immunodeficiency virus 1
observation_type: pKd
Lab note — pKd values are minus log10 of concentrations in M.

Request: What value of pKd has been recorded for this entry: CCc1c(CN)c(CC)c2c(CC)c1CNCc1ccc([nH]1)CNCc1c(CC)c(CNCc3ccc[nH]3)c(CC)c(c1CC)CNCc1ccc([nH]1)CNC2
Response: 6.64

All figures here come from ChEMBL document CHEMBL4613284.
